- Test system: TNF
- Assay Explanation: Inhibition of the production of TNF in mice treated with LPS (amount of TNF in the serum)
- Type: in vivo
- Measurement Setup: Mus musculus, ip, 1 h, read-out: % inhibition of the production of TNF after i.p. admin.

Compound	inhibition in vivo at 5 mg/kg / %
CCCC[N+](C)(C)CCCN1c2ccccc2S(=O)(=O)c2ccc(Cl)cc21	75
C[N+](C)(C)CCCN1c2ccccc2Sc2ccc(Cl)cc21.[Br-]	75
C[N+](C)(C)CCCN1c2ccccc2[S+]([O-])c2ccc(Cl)cc21.[Br-] (stereo not shown)	50
CCCC[N+](C)(C)CCCN1c2ccccc2[S+]([O-])c2ccc(Cl)cc21.[Br-] (stereo not shown)	71
CCCC[N+](C)(C)CCCN1c2ccccc2Sc2ccc(Cl)cc21.[Br-]	95
C[N+](C)(C)CCCN1c2ccccc2S(=O)(=O)c2ccc(Cl)cc21	69
C[N+](C)(CCCN1c2ccccc2Sc2ccc(Cl)cc21)Cc1ccccc1.[Br-]	27
